Data provenance is the RNAGym collection of RNA variant scans (doi:10.1038/s41586-018-0170-7).

B1: tRNA (parent)
chain: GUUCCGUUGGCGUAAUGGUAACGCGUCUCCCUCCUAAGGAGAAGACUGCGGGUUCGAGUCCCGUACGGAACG

# Variants of: B1
# ASSAY_OVERVIEW: yeast fitness, log relative to wild type (ln ratio); higher = fitter; tRNA-Arg(CCU), competitive growth, 37 C, 1 M NaCl
A collection of variants and their measured yeast fitness (ln)

MUTATION_SPEC: U2C C27U A69G
yeast fitness (ln): -0.23

MUTATION_SPEC: U2G G6U C66U C71U
yeast fitness (ln): -0.203

MUTATION_SPEC: C27U A69G C71U
yeast fitness (ln): -0.113

MUTATION_SPEC: G1A U2G C27U A70G
yeast fitness (ln): -0.142

MUTATION_SPEC: G1A G6A A43C C46U A70U
yeast fitness (ln): -0.206

MUTATION_SPEC: G1A U2G G6U C27U C46U A70U
yeast fitness (ln): -0.217

MUTATION_SPEC: U2C A69G A70G
yeast fitness (ln): -0.0175

MUTATION_SPEC: G1A G6U A43C A69G A70G C71U
yeast fitness (ln): -0.398

MUTATION_SPEC: U2C C46U A69G
yeast fitness (ln): -0.0478

MUTATION_SPEC: G6U A70G
yeast fitness (ln): -0.221
